- Test system: Fibroblast
- ASSAY_EXPLANATION: Multiplex assay against human fibroblast
- Assay type: toxicity, cell-based
- STATED_CONDITIONS: 12 h, 1 µM, compound concentration 1 uM, replicate 1
MEASUREMENT_NAME: Total Cell Count
Lab note: record the figure alone, no unit after it.

I have this compound here, CN1CCC(=C2c3ccccc3CC(=O)c3sccc32)CC1.O=C(O)/C=C/C(=O)O [KETOTIFEN FUMARATE] , and I need its recorded Total Cell Count.
149

Could you share which Total Cell Count value was measured for COc1ccc(S(=O)(=O)N(CCO)c2ccccc2CN(C)C/C=C/c2ccc(Cl)cc2)cc1.O=P(O)(O)O ?
278

----------
- Tested on: HEK-293T
- ASSAY_EXPLANATION: Multiplex assay against HEK293T;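 also: share of the cells with healthy nuclei that show this phenotype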
- Type: toxicity, cell-based
- STATED_CONDITIONS: human, 12 h, 10 µM, compound concentration 10 uM, replicate 2
MEASUREMENT_NAME: Population Tubulin-Different-Phenotype (%)
Could you give me the number in %? Just the number is fine.

Example entries and their recorded answers appear below.
COMPOUND: COCC(=O)NC/C=C/c1ccc2ncnc(Nc3ccc(Oc4ccc(C)nc4)c(C)c3)c2c1 [CP-724714]
READOUT_NUMBER: 92

COMPOUND: NC(=O)c1cccc(-c2cc(Nc3ccc(OC(F)(F)F)cc3)ncn2)c1
READOUT_NUMBER: 6

So what does the record say about Population Tubulin-Different-Phenotype (%) for CNC(=O)c1ccc(Nc2nc(OC3CCCC3)c3c(-c4ccc5nc(C)oc5c4)c[nH]c3n2)c(OC)c1 ?
83

Which Population Tubulin-Different-Phenotype (%) is listed for Cn1nc(C(=O)NCc2ccc(C(=O)O)cc2)cc1-c1ccc2[nH]ccc2c1 [BI 4395] ?
4

Give the measured Population Tubulin-Different-Phenotype (%) of COc1cccc2cc(-c3nc([C@H]4CC[C@H](C(=O)O)CC4)n4ncnc(N)c34)[nH]c12 [OSI-027] .
5

Item under review: C=C1/C(=C\C=C2/CCC[C@]3(C)[C@@H]([C@H](C)/C=C/[C@H](C)C(C)C)CC[C@@H]23)C[C@@H](O)C[C@@H]1O [DOXERCALCIFEROL] . Reported Population Tubulin-Different-Phenotype (%)?
23

Dear colleague, I am looking for the recorded Population Tubulin-Different-Phenotype (%) of the following compound: CN1C2CCC1CC(OC(c1ccc(F)cc1)c1ccc(F)cc1)C2.Cl (stereo not drawn)
95

# lookup: Population Tubulin-Different-Phenotype (%) of CCc1cccc(CC)c1NC(=O)c1nn(C)c2c1CCc1cnc(Nc3ccc(C(=O)NC4CCN(C)CC4)cc3OC(F)(F)F)nc1-2
86

----------
Property: Population Healthy Nuclei (%); scope: individual compounds
- Tested on: Fibroblast
- ASSAY_EXPLANATION: Multiplex assay against human fibroblast
- Format: toxicity, cell-based
- STATED_CONDITIONS: 48 h, 10 µM, compound concentration 10 uM, replicate 2
Write the value in % as a bare number.

SMILES: O=C1NC(=O)C(c2cnc3ccccn23)=C1c1cn2c3c(cc(F)cc13)CN(C(=O)N1CCCCC1)CC2
Population Healthy Nuclei (%): 61

SMILES: O=C(Cc1ccc(-c2ccc(OCCN3CCOCC3)cc2)cn1)NCc1ccccc1
Population Healthy Nuclei (%): 53

SMILES: COc1cc(N2CCN(C)CC2)ccc1Nc1ncc2c(n1)N(C)c1ccccc1C(=O)N2C
Population Healthy Nuclei (%): 58

Tell me the measured Population Healthy Nuclei (%) of CNc1cc(Oc2cc(C(=O)Nc3cc(N4CCN(C)CC4)cc(C(F)(F)F)c3)ccc2C)ncn1 , please.
11

----------
- Test system: U2OS
- ASSAY_EXPLANATION: Incucyte cell viability with U2OS; also: filed as whole numbers so only -1 and 0 and 1 occur
- Type: toxicity, cell-based
- STATED_CONDITIONS: human, 0 h, 10 µM, compound concentration 10 uM, replicate number 2, timepoint 0 hours
MEASUREMENT_NAME: Growth Rate
Simply state the number, no unit and no words.

Known results for compounds:
COMPOUND: CCOc1cc2ncc(C#N)c(Nc3ccc(OCc4ccccn4)c(Cl)c3)c2cc1NC(=O)/C=C/CN(C)C [NERATINIB]
SYSTEM_UNDER_TEST: U2OS
MEASUREMENT_NAME: Growth Rate
READOUT_NUMBER: 0
//
COMPOUND: CCc1cccc(CC)c1NC(=O)c1nn(C)c2c1CCc1cnc(Nc3ccc(N4CCN(C)CC4)cc3OC)nc1-2
SYSTEM_UNDER_TEST: U2OS
MEASUREMENT_NAME: Growth Rate
READOUT_NUMBER: 0
//
COMPOUND: CNC[C@H](O)c1cccc(O)c1 [PHENYLEPHRINE]
SYSTEM_UNDER_TEST: U2OS
MEASUREMENT_NAME: Growth Rate
READOUT_NUMBER: 0
//
COMPOUND: C[C@@H]1CN(c2cc(-c3n[nH]c4ccc(OC5(C)CC5)cc34)ncn2)C[C@H](C)O1 [MLi-2]
SYSTEM_UNDER_TEST: U2OS
MEASUREMENT_NAME: Growth Rate
READOUT_NUMBER: 0

# get_value(readout='Growth Rate', item= Cc1cc(C)c(S(=O)(=O)N(Cc2ccc(-c3cccc(S(C)(=O)=O)c3)cc2)Cc2ccc(C(F)(F)F)o2)c(C)c1 )
1

Query: Growth Rate; subject: Cl.O=c1c2cccn2c2ccccc2n1CCCN1CCC(c2ccc(Cl)cc2)CC1
0

For CCC(=N\O)/C(C)=C/c1ccc(F)c(C)c1 [A-226] , what is its reported Growth Rate?
1

I have this compound here, CCN1CCN(Cc2ccc(Nc3ncc(F)c(-c4cc(F)c5nc(C)n(C(C)C)c5c4)n3)nc2)CC1.CS(=O)(=O)O , and I need its recorded Growth Rate.
1

Which Growth Rate value is on record for C=CC(=O)Nc1ccc2[nH]c(=O)n(C3CCN(C(=O)c4ccc(-c5nc6cc[nH]c(=O)c6cc5-c5ccccc5)cc4)CC3)c2c1 ?
0

Fill blank: measured Growth Rate of the compound O=C(Nc1cccnn1)N1CC(C/C=C/c2cncc(Oc3ccc(C(F)(F)F)cn3)n2)C1 is ____.
1

----------
- Test system: U2OS
- ASSAY_EXPLANATION: Multiplex assay against U2OS
- Format: toxicity, cell-based
- STATED_CONDITIONS: human, 12 h, 1 µM, compound concentration 1 uM, replicate 2
MEASUREMENT_NAME: Population Apoptotic (%)
Enter your answer as a number in %; do not include the unit.

COMPOUND: CCn1cc(-c2ccnc3[nH]c(-c4cccc(CN(C)C)c4)cc23)c(-c2ccc(NC(=O)N(C)C)cc2)n1
Population Apoptotic (%): 100
--
COMPOUND: CNC(=O)c1ccc(Nc2nc(OC3CCCC3)c3c(-c4ccc5nc(C)oc5c4)c[nH]c3n2)c(OC)c1
Population Apoptotic (%): 30
--
COMPOUND: Cn1nc(C(F)(F)F)cc1-c1cnc(N2CCc3cc(S(=O)(=O)Nc4c(F)cc(Cl)cc4F)cc(N4CCCC4=O)c32)nc1
Population Apoptotic (%): 0
--
COMPOUND: CN[C@@H]1C[C@H]2O[C@@](C)([C@@H]1OC)n1c3ccccc3c3c4c(c5c6ccccc6n2c5c31)C(=O)NC4
Population Apoptotic (%): 62
--
COMPOUND: S=C(NCCCc1c[nH]cn1)NCCCN(Cc1ccc(Cl)c(Cl)c1)c1ccc(Br)cn1
Population Apoptotic (%): 0

Recall the recorded Population Apoptotic (%) for C=C1/C(=C\C=C2/CCC[C@]3(C)[C@@H]([C@H](C)/C=C/[C@H](C)C(C)C)CC[C@@H]23)C[C@@H](O)C[C@@H]1O with U2OS and state it.
40

Lab request: please report Population Apoptotic (%) under test system U2OS for Cc1ccc2nc(NCCN)c3ncc(C)n3c2c1.O=C(O)C(F)(F)F.O=C(O)C(F)(F)F
4

Entry O=C(Nc1ccc(-n2nc(-c3cccnc3)cc2C(F)(F)F)cn1)c1ccc(-c2ccccc2)c(F)c1 , system U2OS: what Population Apoptotic (%) was measured?
50

----------
- Tested on: U2OS
- ASSAY_EXPLANATION: Multiplex assay against U2OS
- Format: toxicity, cell-based
- STATED_CONDITIONS: human, 48 h, 10 µM, compound concentration 10 uM, replicate 1
Quick rule for you: Population Mitotic Cells (%) under 20% gets Criterion met, anything else gets Criterion not met.

Examples with answers:
COMPOUND: Cl.O=C(c1ccc(Nc2nccc(-c3cc4ccccc4s3)n2)cc1)N1CCC(N2CCCC2)CC1
CLASS_ASSIGNMENT: Criterion met
//
COMPOUND: Cc1cn(-c2cc(NC(=O)c3ccc(C)c(Nc4nccc(-c5cccnc5)n4)c3)cc(C(F)(F)F)c2)cn1 [NILOTINIB]
CLASS_ASSIGNMENT: Criterion met
//
COMPOUND: CN1CCC(=C2c3ccccc3CC(=O)c3sccc32)CC1.O=C(O)/C=C/C(=O)O [KETOTIFEN FUMARATE]
CLASS_ASSIGNMENT: Criterion not met
//
COMPOUND: Cl.Oc1ccc2c3c1O[C@H]1c4[nH]c5c(c4C[C@@]4(O)[C@@H](C2)N(CC2CC2)CC[C@]314)C[C@@]1(O)[C@H]2Cc3ccc(O)c4c3[C@@]1(CCN2CC1CC1)[C@H]5O4
CLASS_ASSIGNMENT: Criterion not met
//
COMPOUND: CCc1cccc(CC)c1NC(=O)c1nn(C)c2c1CCc1cnc(Nc3ccc(C(=O)NC4CCN(C)CC4)cc3OC(F)(F)F)nc1-2
CLASS_ASSIGNMENT: Criterion not met
//
COMPOUND: Cc1ccc(C(=O)Nc2cccc(C(F)(F)F)c2)cc1Nc1nc(-c2cccnc2)nc2c1cnn2C
CLASS_ASSIGNMENT: Criterion met
//
COMPOUND: O=C(Nc1ccc(-n2nc(-c3cccnc3)cc2C(F)(F)F)cn1)c1ccc(-c2ccccc2)c(F)c1 [BI 2049]
CLASS_ASSIGNMENT: Criterion not met
//
COMPOUND: O=C(Nc1ccc(-c2ccnc(Nc3ccc(N4CCOCC4)cc3)n2)cc1)[C@@H]1CCCN1
CLASS_ASSIGNMENT: Criterion not met
//
COMPOUND: CN[C@@H]1C[C@H]2O[C@@](C)([C@@H]1OC)n1c3ccccc3c3c4c(c5c6ccccc6n2c5c31)C(=O)NC4 [STAUROSPORINE]
CLASS_ASSIGNMENT: Criterion met
//
COMPOUND: CCOC(=O)c1c(C)[nH]c2ccc3c(c12)CN1CCc2cc(OC)ccc2C1O3 (stereo not given)
CLASS_ASSIGNMENT: Criterion met

State whether 20% exceeds Population Mitotic Cells (%) recorded for Cl.O=c1c2cccn2c2ccccc2n1CCCN1CCC(c2ccc(Cl)cc2)CC1 .
Criterion met

Would you kindly verify if Population Mitotic Cells (%) of COc1cc(N2CCN(C)CC2)ccc1Nc1ncc2c(n1)N(C)c1ccccc1C(=O)N2C is strictly less than 20%?
Criterion met

Here's an entry: S=C(NCCCc1c[nH]cn1)NCCCN(Cc1ccc(Cl)c(Cl)c1)c1ccc(Br)cn1 . Is its Population Mitotic Cells (%) below 20%?
Criterion met

Strictly below 20% in Population Mitotic Cells (%)? C=C1/C(=C\C=C2/CCC[C@]3(C)[C@@H]([C@H](C)/C=C/[C@H](C)C(C)C)CC[C@@H]23)C[C@@H](O)C[C@@H]1O [DOXERCALCIFEROL]
Criterion not met

Find out if reported Population Mitotic Cells (%) for O=C1NC(=O)C(c2cnc3ccccn23)=C1c1cn2c3c(cc(F)cc13)CN(C(=O)N1CCCCC1)CC2 [LY-2090314] is less than 20%
Criterion met
